- Tested on: Candida albicans A-26
- Protocol Text: Therapeutic activity against Candida albicans A-26 infection in mice
- Type: in vivo
- Test Context: A26, sc, read-out: Lowest Active Dose, subcutaneous at 0, 4 and 24 hours post infection, lowest dose with significant anti-fungal effect
Numbered stars: 1 amine (or outer) side, 2 acyl side, 3 side chain; on linkers, the order of the positions; unused ones are H or OH. Bridge positions count the residues as written; N and C are the ends. Square brackets hold non-standard residues; d marks the D form. Peptide text beside a SMILES is read from it. * marks the point of attachment. Orn(4R-OH,5R-OH) = O=C([C@H](C[C@@H](O)[C@@H](O)N[*:3])N[*:1])[*:2]; hTyr(3S-OH,4S-OH) = N[C@H](C(=O)O)[C@H](O)[C@@H](O)c1ccc(O)cc1; Pro(3S-OH,4S-Me) = C[C@H]1CN[C@H](C(=O)O)[C@H]1O; Hyp = O=C(O)[C@@H]1C[C@@H](O)CN1; Lauroyl = CCCCCCCCCCCC(=O)*; Decanoyl = CCCCCCCCCC(=O)*; 4Abz = Nc1ccc(C(=O)O)cc1
Measured Quantity: minimal effective dose (mg/kg)
Please give a number only; it is taken to be in mg/kg.

Known value: Candida albicans A-26 minimal effective dose of the molecule CCCCCCCCCC(=O)Nc1ccc(C(=O)N[C@H]2C[C@@H](O)[C@@H](O)NC(=O)[C@@H]3[C@@H](O)[C@@H](C)CN3C(=O)[C@H]([C@@H](C)O)NC(=O)[C@H]([C@H](O)[C@@H](O)c3ccc(O)cc3)NC(=O)[C@@H]3C[C@@H](O)CN3C(=O)[C@H]([C@@H](C)O)NC2=O)cc1 [Example 79] ({Decanoyl-4Abz}-[Orn(4R-OH,5R-OH)]T[Hyp][hTyr(3S-OH,4S-OH)]T[Pro(3S-OH,4S-Me)]; lactam 1-C) equals 5

Measured on Candida albicans A-26, CCCCCCCCCCCC(=O)Nc1ccc(C(=O)N[C@H]2C[C@@H](O)[C@@H](O)NC(=O)[C@@H]3[C@@H](O)[C@@H](C)CN3C(=O)[C@H]([C@@H](C)O)NC(=O)[C@H]([C@H](O)[C@@H](O)c3ccc(O)cc3)NC(=O)[C@@H]3C[C@@H](O)CN3C(=O)[C@H]([C@@H](C)O)NC2=O)cc1 [Example 64] ({Lauroyl-4Abz}-[Orn(4R-OH,5R-OH)]T[Hyp][hTyr(3S-OH,4S-OH)]T[Pro(3S-OH,4S-Me)]; lactam 1-C) has a documented minimal effective dose of 10

---

- System: Candida albicans A-26
- Protocol Text: Agar plate disc diffusion test, MIC per disc
- Type: cell-based
- Test Context: 0.01M sodium borate, pH 7.5, 24 hours at 30° C.
Numbered stars: 1 amine (or outer) side, 2 acyl side, 3 side chain; on linkers, the order of the positions; unused ones are H or OH. Bridge positions count the residues as written; N and C are the ends. Square brackets hold non-standard residues; d marks the D form. Peptide text beside a SMILES is read from it. * marks the point of attachment. Orn(4R-OH,5R-OH) = O=C([C@H](C[C@@H](O)[C@@H](O)N[*:3])N[*:1])[*:2]; hTyr(3S-OH,4S-OH) = N[C@H](C(=O)O)[C@H](O)[C@@H](O)c1ccc(O)cc1; Pro(3S-OH,4S-Me) = C[C@H]1CN[C@H](C(=O)O)[C@H]1O; Palmitoyl = CCCCCCCCCCCCCCCC(=O)*; Hyp = O=C(O)[C@@H]1C[C@@H](O)CN1; X2 = O=C(Cc1ccc(N[*:1])cc1)[*:2]; Lauroyl = CCCCCCCCCCCC(=O)*; 4Abz = Nc1ccc(C(=O)O)cc1
Measured Quantity: MIC (μg/disc)
Answer format: numeric, μg/disc implied, no suffix.

Reported MIC for CCCCCCCCCCCC(=O)Nc1ccc(CC(=O)N[C@H]2C[C@@H](O)[C@@H](O)NC(=O)[C@@H]3[C@@H](O)[C@@H](C)CN3C(=O)[C@H]([C@@H](C)O)NC(=O)[C@H]([C@H](O)[C@@H](O)c3ccc(O)cc3)NC(=O)[C@@H]3C[C@@H](O)CN3C(=O)[C@H]([C@@H](C)O)NC2=O)cc1 [Example 72] (Lauroyl-[X2][Orn(4R-OH,5R-OH)]T[Hyp][hTyr(3S-OH,4S-OH)]T[Pro(3S-OH,4S-Me)]; lactam 2-C) was 2.5

CCCCCCCCCCCCCCCC(=O)Nc1ccc(C(=O)N[C@H]2C[C@@H](O)[C@@H](O)NC(=O)[C@@H]3[C@@H](O)[C@@H](C)CN3C(=O)[C@H]([C@@H](C)O)NC(=O)[C@H]([C@H](O)[C@@H](O)c3ccc(O)cc3)NC(=O)[C@@H]3C[C@@H](O)CN3C(=O)[C@H]([C@@H](C)O)NC2=O)cc1 [Example 81] ({Palmitoyl-4Abz}-[Orn(4R-OH,5R-OH)]T[Hyp][hTyr(3S-OH,4S-OH)]T[Pro(3S-OH,4S-Me)]; lactam 1-C) has a reported MIC of 0.312

Value source: patent US4293483A
